# EXPERIMENT_SUMMARY: Dog pharmacokinetic study of a single intravenous dose of R-(−)-modafinil vs racemic modafinil
# Assay type: in vivo
# RUN_CONDITIONS: dog, plasma; dogs, 5 mg/kg IV; Mean
READOUT_LABEL: AUC(0-inf)
Remember to put the unit after the number in your answer.

INPUT: Note down AUC(0-inf) recorded for NC(=O)C[S+]([O-])C(c1ccccc1)c1ccccc1 (racemic) [Racemic Modafinil]
OUTPUT: 15.1 µg·h/mL

INPUT: Note down AUC(0-inf) recorded for NC(=O)C[S@@+]([O-])C(c1ccccc1)c1ccccc1 [R-(−)-modafinil]
OUTPUT: 15.9 µg·h/mL

====

# EXPERIMENT_SUMMARY: Racemic modafinil:malonic acid co-crystal pharmacokinetic study in dogs (vs micronized pure modafinil)
# Type: in vivo
# RUN_CONDITIONS: dog, in vivo, median particle size 2 micrometers (pure modafinil), 16 micrometers (co-crystal)
READOUT_LABEL: Cmax (ng/mL)
Just the number in ng/mL, nothing appended.

INPUT: Note down Cmax recorded for NC(=O)C[S+]([O-])C(c1ccccc1)c1ccccc1 (racemic) [Racemic Modafinil]
OUTPUT: 11000

====

Assign Vd to each entry below.
# EXPERIMENT_SUMMARY: Dog pharmacokinetic study of a single intravenous dose of R-(−)-modafinil vs racemic modafinil
# Format: in vivo
# RUN_CONDITIONS: dog, plasma; dogs, 5 mg/kg IV; Mean
# From the text: A dog pharmacokinetic study (N=6) of a single intravenous dose of R-(−)-modafinil was completed. The purity of the R-(−)-modafinil in the administered formulation was ca 80 percent. This formulation was compared to a formulation of racemic modafinil, also administered by the intravenous route to the same dogs in a crossover design. Ir. […]
Just the number in L/kg, nothing appended.

INPUT: Note down Vd recorded for NC(=O)C[S@@+]([O-])C(c1ccccc1)c1ccccc1 [R-(−)-modafinil]
OUTPUT: 0.647

INPUT: Note down Vd recorded for NC(=O)C[S+]([O-])C(c1ccccc1)c1ccccc1 (racemic) [Racemic Modafinil]
OUTPUT: 0.589
